method summary: protein stability index of a GFP-peptide fusion (GPS, HEK-293T) (PSI 1-6); higher = more stable;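 note: 24-mer peptide tiles fused after GFP, lentivirally expressed, FACS-sorted into six equal bins by GFP/DsRed ratio, decoded by Illumina sequencing, PSI is the read-weighted mean bin number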
experimental conditions: treatment: MLN4924 1 uM, 8 h; c terminus: a fixed tail appended
Decision: protein stability index compared against 3; not below it gives YES, below it gives NO.

Use these answered entries as a reference point.
sequence input	cat
HLHLETFKAVLDGLDVLLAQEVRP [PRAME]	NO
CLELVSCFVLFSLTHTHTHTPNHR [ANKRD44]	YES
PVAQSTDGIRGKVGHARGLHAWQI [SPSB4]	NO
SLRFNGRVLFIKDVIGDEICCWSF [KCTD10]	NO
QQVKKLEKALKKNVKLQELINHKK [CEP70]	NO

Request: Hi team, for ILSEEGRRQQAKLKELQAIAERLG [KCNAB2] , is the recorded protein stability index at or above 3?
Result: YES

Request: Is protein stability index at least 3? Consider REFSFTLKDDIYIRYQSFNNQSDL [PRIM1]
Result: NO

Request: Identify whether the reported protein stability index of the following sequence is 3 or greater: AAGQRSRPSTYYELLGVHPGASTE [DNAJC4]
Result: YES

Request: Can AVLGGFLYAVGGQDGVSCLNIVER [KLHL20] be said to have protein stability index at or above 3?
Result: NO

Request: I'd appreciate it if you could say whether EKNKHIFPASRWEPYDPEKKWDKY [FAM50A] has protein stability index at least equal to 3.
Result: YES

Request: Please indicate if the recorded protein stability index for LEENPYDLDAWSILIREAQNQPID [CSTF3] meets or exceeds 3.
Result: YES

Request: Could you verify whether the entry YEADCLAAAYGGKAAPAAPPAARP [CEBPB] shows protein stability index of no less than 3?
Result: YES

* * *

Catalogue of protein stability index readings, one per entry.
method summary: protein stability index of a GFP-peptide fusion (GPS, HEK-293T) (PSI 1-6); higher = more stable
experimental conditions: treatment: DMSO; c terminus: a fixed tail appended
# respond with the number and nothing more

sequence input	parameter	numeric readout
RMTSSPSSIPRRDDFFRHESGEHF [RAD54B]	protein stability index	3.67
ASWMYQLQHGDQLSICFTCFKAAF [TEX19]	protein stability index	2.59
LCVNYFFYGETVADYFATFVQREE [CDS1]	protein stability index	3.4
HGVELHSDVIEYAKQKLDFFIRTS [PCMTD2]	protein stability index	2.37
GELLGEARYYLVQGLIEDCQLALQ [KCTD13]	protein stability index	2.15
PSVFDGLGDLLMPTMAPAGQPAPV [SNAP91]	protein stability index	3.54
PGEVVPSGESGLRRRGSDPASGEV [TMEM40]	protein stability index	5.52
THNIAHGSLGFEPVYVSCIAQDTC [SPAG8]	protein stability index	2.69
VVRYLLEQRADPNAKAHCGATALH [FEM1B]	protein stability index	2.23
QGDLASLRAELQGHHAEKLPAGAG [TNFSF13B]	protein stability index	4.72

Request: protein stability index lookup needed for HEEERINIYCLNCEVPTCSLCKVF [TRIM55] , thanks.
Result: 2.95

Request: So what does the record say about protein stability index for KTSLWEEENALWEEERAFWMENNG [CCDC70] ?
Result: 4

Request: Suppose we examine the sequence AEGIGSTVFRAILDYYKTGIIRCP [BTBD10] ; what protein stability index value has been reported?
Result: 2.12

* * *

Each record here notes measured protein stability index.
method summary: protein stability index of a GFP-peptide fusion (GPS, HEK-293T) (PSI 1-6); higher = more stable
experimental conditions: treatment: MLN4924 1 uM, 8 h; c terminus: a fixed tail appended
// return just the number, without any unit appended

Request: Bench note: what protein stability index did PLLPSDLRRTGCAALRIANCKLFR [GAN] show?
Result: 2.35

Request: Requested read-out: protein stability index. Entry: DPSIFTAQPNTMLGRMFGSGREHN [BTBD10]
Result: 3.79

Request: What value of protein stability index has been recorded for this entry: DDVIVQGDIQELYDTTLALGHAAA [GLT8D2]
Result: 4.42

Request: Record request: protein stability index value, item EAQLSLIRDIRRRGKNKMAAQNCR [NFE2L1]
Result: 3.58

Request: I would be grateful if you could share the reported protein stability index for QYPNPLPVLSGAELEKAHLALIDY [VPS39] .
Result: 3.58

Request: Recorded protein stability index of LQDGNLRAPHKESTLPRSGSSGGQ [CHCHD6] , please.
Result: 4.95

* * *

method summary: protein stability index of a GFP-peptide fusion (GPS, HEK-293T) (PSI 1-6); higher = more stable
experimental conditions: treatment: DMSO; c terminus: a fixed tail appended
parameter: protein stability index

Request: Data request, read-out protein stability index, for GYSSLDQSPDEKPLVALDTDSDDD [FAM219A]
Result: 5.69

Request: Which value of protein stability index has been reported for AVNAHQWLDNPERWNKVKMVVSRE [SEPHS2] in the records?
Result: 3.02

Request: Which protein stability index is listed for ERRQTLNLISLLALRVLAEQNIIP [TENT5C] ?
Result: 2.26

Request: What protein stability index value was documented for this sequence, LSAVPEEGDATRDPGPEPEEEPGV [PSD2] ?
Result: 5.77

Request: Entry LLGFLRIRVRGQRASRLQAPVLVA [LPCAT4] has what protein stability index?
Result: 2.37

Request: Look up protein stability index: MLQEQLDAINEEIRMIQEEKESTE [PPFIA4]
Result: 4.75

Request: # lookup: protein stability index of QMPPVIVETARSHQRSSSESYTQS [PI4K2A]
Result: 4.6

Request: Consider the sequence IIYMGSFMLMLLVLGIQVKCFHEI [CDS1] and give its measured protein stability index.
Result: 3.57

Request: Please report the recorded protein stability index for TVLTRHSQPATPTPLQSRTSIVQA [PDLIM7] .
Result: 3.77

Request: Look up protein stability index: SNYFSMDSMEGKRSPYAGLQLGAA [TRIM29]
Result: 2.88

Request: Reported protein stability index, sequence TGTYQRAILQNHTDFKDKIVLDVG [CARM1] : ____
Result: 3.34

Request: Which protein stability index reading was recorded for the sequence IRESRLFGAVVRWAEAECQRQQLP [BTBD1] ?
Result: 2.5

Request: What does the data say about its protein stability index? Entry: LASITETIQVHRRYWRSLRVMKVE [HDAC6]
Result: 2.42

* * *

method summary: protein stability index of a GFP-peptide fusion (GPS, HEK-293T) (PSI 1-6); higher = more stable
experimental conditions: treatment: MLN4924 1 uM, 8 h; c terminus: a fixed tail appended
parameter: protein stability index
No unit in the answer, only the number.

sequence input	numeric readout
FPAEQYYRFHEHWRFVLQRLVFLA [TSN]	2.22
AQILPSRVQGGCYRFDSSSCSSED [DRICH1]	3.92
FEAAFGTTPSTSSSSSFDPSVFDG [SNAP91]	4.53

Request: So what's the measured protein stability index for this one? FKAVLDGLDVLLAQEVRPRRWKLQ [PRAME]
Result: 2.41

Request: Sample ARWRRLRLQQLRRLRGLLRVLRGR [FBXO33] — what was its protein stability index?
Result: 3.95

Request: What measured protein stability index goes with SDPQLIVQLRFCGRQPCGRFLRAY [TRADD] ?
Result: 2.11

* * *

method summary: protein stability index of a GFP-peptide fusion (GPS, HEK-293T) (PSI 1-6); higher = more stable
experimental conditions: treatment: DMSO; c terminus: a fixed tail appended
# protein stability index annotations
The response must contain the number and no unit.

Request: Would you mind telling me what protein stability index value was observed for EQLSVLASCLQELFKAHFRGEVLP [INTS3] ?
Result: 2.52

Request: # get_value(readout='protein stability index', item= AAANGGHVKIVKLLLAHKADVNAQ [ANKRD17] )
Result: 2.51

Request: May I ask what protein stability index has been recorded for AAAFSQCEEWSFFHAYYYCFITLT [KCNK9] ?
Result: 3.33

Request: What value of protein stability index has been reported for the following sequence? RTVDGSPMMKAAMYSVEITVEKDK [PALM]
Result: 4.09

Request: Name the recorded protein stability index for AGISRSPTICMAYLMKTKQFRLKE [DUSP5] .
Result: 2.21

* * *

method summary: protein stability index of a GFP-peptide fusion (GPS, HEK-293T) (PSI 1-6); higher = more stable
experimental conditions: treatment: MLN4924 1 uM, 8 h; c terminus: a fixed tail appended
# binarize protein stability index: threshold 3 inclusive, high side yes (1), low side no (0)

See these solved cases before continuing.
sequence input	cat
GGGEGKAMYIDTEGTFRPERLLAV [RAD51]	no (0)
EDEGVDLSEGSSNEDEDLGPCEGP [SPANXN3]	yes (1)
RFYLPLLIHQHEKVIYLDDDVIVQ [GLT8D2]	no (0)

Request: Reported protein stability index at or above 3? KLQDLIKDVLRYGEEQLKTHKKCK [FCHO1]
Result: no (0)

Request: Is protein stability index at least 3? Consider PDAETLKVMKQPRCGVPDVAQFVL [MMP1]
Result: no (0)
